Tested on: 276233-004-R-J1-PDC KRAS spheroids with HUVEC/MSC, viability;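 further: cells exposed to agents for seven days before viability read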
Experimental details: Anticancer human tumor 276233-004-R-J1-PDC patient-derived colon adenocarcinoma cell line growth inhibition [KRAS2]
Reported conditions: second compound 3.16 µM; first compound 0.000316 µM; active compounds read low
# note: exactly 80% is not below, so it is Not fulfilled; use Fulfilled for viability, T/C strictly under it

Consider the following illustrative entries.
Compound	Category
CN(C)C/C=C/C(=O)Nc1cc2c(Nc3ccc(F)c(Cl)c3)ncnc2cc1O[C@H]1CCOC1 + COc1cc2nc(C)nc(NC(C)c3cc(N)cc(C(F)(F)F)c3)c2cc1OC1CCOC1	Fulfilled
CC(=O)Nc1cccc(-n2c(=O)n(C3CC3)c(=O)c3c(Nc4ccc(I)cc4F)n(C)c(=O)c(C)c32)c1 + COc1cc2nc(C)nc(NC(C)c3cc(N)cc(C(F)(F)F)c3)c2cc1OC1CCOC1	Fulfilled
Cn1ncnc1[C@H]1c2n[nH]c(=O)c3cc(F)cc(c23)N[C@@H]1c1ccc(F)cc1 + CC1OCC2(CCN(c3cnc(Sc4ccnc(N)c4Cl)c(N)n3)CC2)C1N	Not fulfilled

Determine whether this compound shows viability, T/C lower than 80% (ties excluded): CC(=O)Nc1cccc(-n2c(=O)n(C3CC3)c(=O)c3c(Nc4ccc(I)cc4F)n(C)c(=O)c(C)c32)c1 + CNCc1ccccc1-c1csc(C(C)Nc2nc(C)nc3cc(OC)c(OC)cc23)c1
Fulfilled

Bench note: check whether Cn1ncnc1[C@H]1c2n[nH]c(=O)c3cc(F)cc(c23)N[C@@H]1c1ccc(F)cc1 + CNCc1ccccc1-c1csc(C(C)Nc2nc(C)nc3cc(OC)c(OC)cc23)c1 shows viability, T/C below 80%
Fulfilled

The reported numbers originate from PubChem BioAssay AID1963873.
